# Test system: Staphylococcus aureus
# procedure-details: Antimicrobial activity against Staphylococcus aureus FDA209P by standard serial-dilution technique
# Assay type: functional
Each item that follows carries a reported MIC.

smiles-str: CC(C)[C@@H]1NC(=O)[C@@H]2[C@H](C)CCN2C(=O)CN/C(=N\[C@H](C(=O)N[C@H](C(=O)N[C@H](CC(=O)O)c2nccs2)[C@@H](C)c2ccccc2)C(C)(C)C)[C@H](C(C)(C)C)NC1=O
MIC: 64 µg/mL

smiles-str: C#CCN1CCN(C(=O)C[C@@H](NC(=O)[C@@H](NC(=O)[C@@H](/N=C2\NCC(=O)N3CC[C@@H](C)[C@H]3C(=O)N[C@@H](C(C)C)C(=O)N[C@H]2C(C)(C)C)C(C)(C)C)[C@@H](C)c2ccccc2)c2nccs2)CC1
MIC: 16 µg/mL

smiles-str: CCCC(=O)C[C@@H](NC(=O)[C@@H](NC(=O)[C@@H](/N=C1\NCC(=O)N2CC[C@@H](C)[C@H]2C(=O)N[C@@H](C(C)C)C(=O)N[C@H]1C(C)(C)C)C(C)(C)C)[C@@H](C)c1ccccc1)c1nccs1
MIC: 1 µg/mL

smiles-str: CC(C)[C@@H]1NC(=O)[C@@H]2[C@H](C)CCN2C(=O)CN/C(=N\[C@H](C(=O)N[C@H](C(=O)N[C@H](CC(=O)N2CCSC2)c2nccs2)[C@@H](C)c2ccccc2)C(C)(C)C)[C@H](C(C)(C)C)NC1=O
MIC: 4 µg/mL

====

# Test system: Enterococcus faecium
# procedure-details: Antimicrobial activity against Enterococcus faecium NCTC 12201 by standard serial-dilution technique
# Type: functional
value-kind: MIC (µg/mL)

smiles-str: CC(C)[C@@H]1NC(=O)[C@@H]2[C@H](C)CCN2C(=O)CN/C(=N\[C@H](C(=O)N[C@H](C(=O)N[C@H](CC(=O)N2CCN(C(=O)OC(C)(C)C)CC2)c2nccs2)[C@@H](C)c2ccccc2)C(C)(C)C)[C@H](C(C)(C)C)NC1=O
measurement-unit: µg/mL
numeric-result: 8

smiles-str: CC(C)[C@@H]1NC(=O)[C@@H]2[C@H](C)CCN2C(=O)CN/C(=N\[C@H](C(=O)N[C@H](C(=O)N[C@H](CC(=O)NN)c2nccs2)[C@@H](C)c2ccccc2)C(C)(C)C)[C@H](C(C)(C)C)NC1=O
measurement-unit: µg/mL
numeric-result: 8

smiles-str: CC(C)[C@@H]1NC(=O)[C@@H]2[C@H](C)CCN2C(=O)CN/C(=N\[C@H](C(=O)N[C@H](C(=O)N[C@H](CNC(=O)NCc2ccccc2)c2nccs2)[C@@H](C)c2ccccc2)C(C)(C)C)[C@H](C(C)(C)C)NC1=O
measurement-unit: µg/mL
numeric-result: 8

====

# System: Staphylococcus aureus
# procedure-details: Antimicrobial activity against methicillin-resistant Staphylococcus aureus HH1 by standard serial-dilution technique
# Format: functional
value-kind: MIC (µg/mL)

smiles-str: COC(=O)C[C@@H](NC(=O)[C@@H](NC(=O)[C@@H](/N=C1\NCC(=O)N2CC[C@@H](C)[C@H]2C(=O)N[C@@H](C(C)C)C(=O)N[C@H]1C(C)(C)C)C(C)(C)C)[C@@H](C)c1ccccc1)c1nccs1
numeric-result: 1

smiles-str: CC(C)[C@@H]1NC(=O)[C@@H]2[C@H](C)CCN2C(=O)CN/C(=N\[C@H](C(=O)N[C@H](C(=O)N[C@H](CC(=O)NCc2ccccc2)c2nccs2)[C@@H](C)c2ccccc2)C(C)(C)C)[C@H](C(C)(C)C)NC1=O
numeric-result: 8

smiles-str: CC(C)[C@@H]1NC(=O)[C@@H]2[C@H](C)CCN2C(=O)CN/C(=N\[C@H](C(=O)N[C@H](C(=O)N[C@H](CC(=O)N2CCOCC2)c2nccs2)[C@@H](C)c2ccccc2)C(C)(C)C)[C@H](C(C)(C)C)NC1=O
numeric-result: 16

smiles-str: CC(C)[C@@H]1NC(=O)[C@@H]2[C@H](C)CCN2C(=O)CN/C(=N\[C@H](C(=O)N[C@H](C(=O)N[C@H](CC(=O)N2CCNCC2)c2nccs2)[C@@H](C)c2ccccc2)C(C)(C)C)[C@H](C(C)(C)C)NC1=O
numeric-result: 64

smiles-str: CC(C)[C@@H]1NC(=O)[C@@H]2[C@H](C)CCN2C(=O)CN/C(=N\[C@H](C(=O)N[C@H](C(=O)N[C@H](CC(=O)N2CCN(C(=O)OC(C)(C)C)CC2)c2nccs2)[C@@H](C)c2ccccc2)C(C)(C)C)[C@H](C(C)(C)C)NC1=O
numeric-result: 8

Origin of the recorded values: ChEMBL document CHEMBL1255213
